Target: α4β7 integrin on human cells (human, UniProt P13612 34-1032; P26010 20-798)
Assay: cell-based or functional assay
Bridge positions count the residues as written; N and C are the ends. Square brackets hold non-standard residues; d marks the D form. Phe(4-tBu) = CC(C)(C)c1ccc(C[C@H](N)C(=O)O)cc1; 1Nal = N[C@@H](Cc1cccc2ccccc12)C(=O)O; NMeR = CN[C@@H](CCCNC(=N)N)C(=O)O; β3hE = N[C@@H](CCC(=O)O)CC(=O)O; NMeK = CN[C@@H](CCCCN)C(=O)O; Pen = CC(C)(S)[C@H](N)C(=O)O
Assign PBMC IC50 to each entry below.

Req: Look up PBMC IC50 of Ac-[Pen][NMeR]SDTL[Pen][Phe(4-tBu)][b‑H‑E][dK]-NH2 (disulfide 1-7 (inferred); also: homodimer via IDA-PEG4-Biotin) [SEQ ID NO 167] and report it.
Resp: ≤ 10 nM

Req: Look up PBMC IC50 of Ac-[Pen][NMeR]SDTL[Pen][1Nal][β3hE][NMeK]-NH2 (disulfide 1-7 (inferred); also: homodimer via DIG) [SEQ ID NO 142] and report it.
Resp: > 50 nM

Req: Look up PBMC IC50 of Ac-[Pen][NMeR]SDTL[Pen][Phe(4-tBu)][b‑H‑E]-NH2 (disulfide 1-7 (inferred)) [SEQ ID NO 165] and report it.
Resp: > 100 nM

Req: Look up PBMC IC50 of Ac-[Pen][NMeR]SDTL[Pen][Phe(4-tBu)][b‑H‑E][dK]-NH2 (disulfide 1-7 (inferred); also: homodimer via IDA) [SEQ ID NO 166] and report it.
Resp: ≤ 10 nM

Req: Look up PBMC IC50 of Ac-[Pen][NMeR]SDTL[Pen][Phe(4-tBu)][b‑H‑E][dK]-OH (disulfide 1-7 (inferred); also: homodimer via DIG) [SEQ ID NO 168] and report it.
Resp: ≤ 10 nM

Where these numbers come from: patent US20160159862A1
